- SYSTEM: UniProt Q9NWZ3
- Sequence (Q9NWZ3 whole entry): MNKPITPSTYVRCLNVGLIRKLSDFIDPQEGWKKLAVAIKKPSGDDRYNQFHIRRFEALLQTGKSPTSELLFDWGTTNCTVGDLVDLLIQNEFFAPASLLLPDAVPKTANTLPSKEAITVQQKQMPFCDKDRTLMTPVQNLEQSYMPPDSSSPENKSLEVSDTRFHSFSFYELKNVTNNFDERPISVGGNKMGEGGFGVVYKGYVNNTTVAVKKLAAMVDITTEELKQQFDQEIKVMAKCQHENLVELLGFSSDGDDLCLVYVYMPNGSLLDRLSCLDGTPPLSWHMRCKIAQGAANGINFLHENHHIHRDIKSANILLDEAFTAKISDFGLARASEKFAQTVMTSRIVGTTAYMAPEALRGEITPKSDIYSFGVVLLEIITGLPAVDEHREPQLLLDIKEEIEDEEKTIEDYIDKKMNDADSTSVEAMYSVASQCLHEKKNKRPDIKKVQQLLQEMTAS
READOUT TYPE: pIC50
Reminder that pIC50 is minus the log10 of a molar concentration.

The reported pIC50 value, UniProt Q9NWZ3, for COc1cc(N2CCN(C(=O)CCCC(=O)Nc3cccc4c3CN(C3CCC(=O)NC3=O)C4=O)CC2)ccc1NC(=O)c1cccc(-c2cc[nH]n2)n1 (stereo not shown) [PSP-0119] reads 8.55
